Target: Human Factor XIIa (Homo sapiens)
Construct: purchased Enzyme Research Laboratories
Sequence (P00748 373-615 limits assumed): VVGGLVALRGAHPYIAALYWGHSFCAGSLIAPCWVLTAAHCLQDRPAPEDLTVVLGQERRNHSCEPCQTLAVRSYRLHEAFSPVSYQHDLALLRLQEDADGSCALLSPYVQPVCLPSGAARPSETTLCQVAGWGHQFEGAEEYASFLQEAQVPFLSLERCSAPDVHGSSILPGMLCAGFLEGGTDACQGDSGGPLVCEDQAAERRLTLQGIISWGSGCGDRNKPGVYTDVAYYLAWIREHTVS
Assay: Factor XIIa inhibitory activity in vitro (fluorogenic substrate H-DPro-Phe-Arg-AFC)
Type: biochemical
Conditions: 25° C., class symbols, read-out: Human FXIIa IC50
pIC50: −log10 of the molar value.
Each entry below carries its reported pIC50.

Some compounds with known pIC50 results, for comparison:
Kindly state the measured pIC50 obtained for CC(C)N[C@H](CCc1ccccc1)C(=O)N[C@@H](C)C(=O)NCc1cnc2[nH]cc(Cl)c2c1 [Example 9.03] with Human Factor XIIa (Homo sapiens).
5.52 to 6.00

Kindly state the measured pIC50 obtained for CC(C)c1cc(C(=O)N[C@@H](Cc2ccc(F)c(F)c2)C(=O)NCc2ccc3c(N)nccc3c2)ncn1 [Example 0.87] with Human Factor XIIa (Homo sapiens).
6.00 to 6.55

Kindly state the measured pIC50 obtained for Nc1nccc2cc(CNC(=O)[C@H](Cc3ccc(F)c(F)c3)NC(=O)c3ccsc3)ccc12 [Example 0.77] with Human Factor XIIa (Homo sapiens).
4.40 to 5.00

Kindly state the measured pIC50 obtained for C[C@H](NC(=O)[C@H](O)CCc1ccccc1)C(=O)NCc1ccc2c(N)nccc2c1 [Example 6.24] with Human Factor XIIa (Homo sapiens).
4.40 to 5.00

Kindly state the measured pIC50 obtained for Nc1nccc2cc(CNC(=O)[C@H](Cc3ccc(F)c(F)c3)NC(=O)CN3CCOc4ccccc4C3)ccc12 [Example 3.33] with Human Factor XIIa (Homo sapiens).
4.40 to 5.00

Kindly state the measured pIC50 obtained for Cc1nc2ccncc2cc1C(=O)N[C@@H](Cc1ccc(F)c(F)c1)C(=O)NCc1ccc2c(N)nccc2c1 [Example 0.26] with Human Factor XIIa (Homo sapiens).
4.40 to 5.00

More entries:
Kindly state the measured pIC50 obtained for Nc1nccc2cc(CNC(=O)[C@H](Cc3ccc(F)c(F)c3)NC(=O)c3cnc4n(c3=O)CCS4)ccc12 [Example 0.37] with Human Factor XIIa (Homo sapiens).
5.52 to 6.00

Kindly state the measured pIC50 obtained for C[C@H](NC(=O)[C@@H](CCc1ccccc1)N1CCCC1)C(=O)NCc1ccc2c(N)nccc2c1 [Example 6.23] with Human Factor XIIa (Homo sapiens).
6.55 to 7.00

Kindly state the measured pIC50 obtained for Nc1nccc2cc(CNC(=O)[C@H](Cc3ccc(F)c(F)c3)NC(=O)CN3CCCCC3=O)ccc12 [Example 3.39] with Human Factor XIIa (Homo sapiens).
4.40 to 5.00

###

Each entry below carries its reported IC50.
Target: Human Factor XIIa (Homo sapiens, UniProt P00748)
Construct: purchased Enzyme Research Laboratories
Test: Factor XIIa inhibitory activity in vitro (fluorogenic substrate H-DPro-Phe-Arg-AFC)
Format: biochemical
Conditions: 25° C., class symbols, read-out: Human FXIIa IC50

Some compounds with known IC50 results, for comparison:
For the compound shown here, `CC(C)N[C@H](CCCCN1CCCCC1)C(=O)N[C@@H](Cc1ccc(F)c(F)c1)C(=O)NCc1cnc2[nH]cc(Cl)c2c1` , give the reported IC50.
0.03 to 0.1 µM

For the compound shown here, `Nc1nccc2cc(CNC(=O)[C@H](Cc3ccc(F)c(F)c3)NC(=O)CN3CCCC3=O)ccc12` , give the reported IC50.
10 to 40 µM

For the compound shown here, N[C@H](CCc1ccccc1)C(=O)N1CCC1C(=O)NCc1cnc2[nH]cc(Cl)c2c1 (stereo partly drawn) , give the reported IC50.
0.28 to 1 µM

For the compound shown here, `C[C@@H]1CCC[C@H](C)N1CC(=O)N1CC(C(=O)NCc2ccc3c(N)nccc3c2)C1` , give the reported IC50.
10 to 40 µM

For the compound shown here, `Cc1ccc(C)c(S(=O)(=O)NCC(=O)N[C@@H](Cc2ccc(F)c(F)c2)C(=O)NCc2ccc3c(N)nccc3c2)c1` , give the reported IC50.
1 to 3 µM

For the compound shown here, `C[C@@H]1CCC[C@H](C)N1CC(=O)N1CC[C@H](C(=O)NCc2ccc3c(N)nccc3c2)C1` , give the reported IC50.
10 to 40 µM

For the compound shown here, `Nc1nccc2cc(CNC(=O)[C@H](Cc3ccc(F)c(F)c3)NC(=O)c3cccnn3)ccc12` , give the reported IC50.
3 to 10 µM

For the compound shown here, `COc1cc2c(N)nccc2cc1CNC(=O)[C@H](C)NC(=O)[C@H](N)CCc1ccccc1` , give the reported IC50.
10 to 40 µM

More entries:
For the compound shown here, `CC(C)N[C@H](CCc1ccccc1)C(=O)N[C@@H](C)C(=O)NCc1cc2c(Cl)cccc2s1` , give the reported IC50.
10 to 40 µM
